The reported numbers originate from patent US9695154B2.

Catalogue of pIC50 readings, one per entry.
Target: recombinant human SAE enzyme (Homo sapiens, UniProt Q9UBT2)
Sequence (Q9UBT2 whole entry): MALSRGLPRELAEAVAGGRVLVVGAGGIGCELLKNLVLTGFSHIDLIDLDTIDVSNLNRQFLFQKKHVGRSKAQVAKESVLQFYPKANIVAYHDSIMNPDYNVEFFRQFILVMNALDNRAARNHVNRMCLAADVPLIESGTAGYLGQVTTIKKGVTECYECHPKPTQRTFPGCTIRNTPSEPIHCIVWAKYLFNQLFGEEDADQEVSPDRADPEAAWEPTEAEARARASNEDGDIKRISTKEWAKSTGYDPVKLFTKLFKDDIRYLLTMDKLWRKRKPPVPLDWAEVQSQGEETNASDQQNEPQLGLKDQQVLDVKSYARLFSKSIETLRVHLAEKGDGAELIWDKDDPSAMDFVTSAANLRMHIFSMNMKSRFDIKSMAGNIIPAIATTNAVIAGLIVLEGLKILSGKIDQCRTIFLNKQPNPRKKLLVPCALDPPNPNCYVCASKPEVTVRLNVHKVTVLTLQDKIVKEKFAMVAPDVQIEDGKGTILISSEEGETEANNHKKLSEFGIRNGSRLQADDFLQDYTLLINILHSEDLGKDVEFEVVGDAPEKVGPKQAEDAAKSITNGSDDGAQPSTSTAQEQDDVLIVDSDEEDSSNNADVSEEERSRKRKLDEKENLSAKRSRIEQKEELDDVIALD
Sequence (Q9UBE0 whole entry partner): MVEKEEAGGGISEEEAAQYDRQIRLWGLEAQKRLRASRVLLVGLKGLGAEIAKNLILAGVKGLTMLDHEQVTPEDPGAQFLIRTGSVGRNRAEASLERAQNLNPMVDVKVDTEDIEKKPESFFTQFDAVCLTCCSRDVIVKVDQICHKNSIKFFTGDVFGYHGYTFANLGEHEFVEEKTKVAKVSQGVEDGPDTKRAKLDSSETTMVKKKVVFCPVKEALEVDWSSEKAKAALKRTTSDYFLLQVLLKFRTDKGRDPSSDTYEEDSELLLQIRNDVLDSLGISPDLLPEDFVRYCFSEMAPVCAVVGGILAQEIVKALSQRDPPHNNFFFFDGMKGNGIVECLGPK
Test: SAE HTRF Enzyme Assay
Conditions: class symbols A-C
Procedure: The SAE enzymatic reaction totals 50 μl and contains 50 mM HEPES Hemisodium (pH 7.5), 0.05% BSA, 5 mM MgCl2, 0.5 μM ATP, 250 μM GSH, 0.01 μM Ubc9-GST, 0.125 μM Sumo-Flag and 0.11 nM recombinant human SAE enzyme. […] After incubation for 2 hours at 24° C., quantification of FRET is performed on the Pherostar™ (BMG Labtech). Percentage inhibition values at a single concentration or enzyme inhibition (IC50) values are determined from those curves. […]
pIC50: −log10 of the molar value.
parameter.measured: pIC50

molecule | result
NS(=O)(=O)OC[C@H]1C[C@@H](Nc2ncncc2C(=O)c2ccn(CC(=O)c3cccc(Cl)c3)n2)[C@H](O)[C@@H]1O | > 8.00
C#Cc1cccc(Cn2ccc(C(=O)c3cncnc3N[C@@H]3C[C@H](COS(N)(=O)=O)[C@@H](O)C3)n2)c1 | > 8.00
NS(=O)(=O)OC[C@H]1C[C@@H](Nc2ncncc2C(=O)c2ccn(Cc3ccc(C(F)(F)F)o3)c2)[C@@H](F)[C@@H]1O | > 8.00
NS(=O)(=O)OC[C@H]1C[C@@H](Nc2ncncc2C(=O)c2cc(C(F)(F)F)n(Cc3cccc(Cl)c3)n2)C[C@@H]1O | > 8.00
NS(=O)(=O)OC[C@H]1C[C@@H](Nc2ncncc2C(=O)c2ccn(CC3=CCCOC3)n2)C[C@@H]1O | 7.00 to 8.00
NS(=O)(=O)OC[C@H]1C[C@@H](Nc2ncncc2C(=O)c2ccn(Cc3ccc(SC(F)(F)F)cc3)n2)[C@H](O)[C@@H]1O | > 8.00
Cc1cc(C(=O)c2cncnc2N[C@@H]2C[C@H](COS(N)(=O)=O)[C@@H](O)[C@H]2O)nn1Cc1ccccc1 | > 8.00
NS(=O)(=O)OC[C@H]1C[C@@H](Nc2ccncc2C(=O)c2ccn(Cc3cccc(OC(F)F)c3)n2)C[C@@H]1O | > 8.00
NS(=O)(=O)OC[C@H]1C[C@@H](Nc2ncncc2C(=O)c2ccn(Cc3cccc4nccn34)c2)[C@@H](F)[C@@H]1O | 7.00 to 8.00
NS(=O)(=O)CC[C@H]1C[C@@H](Nc2ncncc2C(=O)c2ccn(Cc3cccc(Br)c3)n2)C[C@@H]1O | 6.00 to 7.00
CC(c1cccc(Br)n1)n1ccc(C(=O)c2cncnc2N[C@@H]2C[C@H](COS(N)(=O)=O)[C@@H](O)C2)n1 (single isomer, unassigned) [Compound I-65] | > 8.00
NS(=O)(=O)OC[C@H]1C[C@@H](Nc2ncncc2C(=O)c2ccn(Cc3cccc(NC(=O)CCl)c3)n2)[C@H](O)[C@@H]1O | > 8.00
CSCCn1ccc(C(=O)c2cncnc2N[C@@H]2C[C@H](COS(N)(=O)=O)[C@@H](O)C2)n1 | 6.00 to 7.00

---

Molecular target: recombinant human SAE enzyme (Homo sapiens)
Test: SAE HTRF Enzyme Assay
Conditions: class symbols A-C
Method: The SAE enzymatic reaction totals 50 μl and contains 50 mM HEPES Hemisodium (pH 7.5), 0.05% BSA, 5 mM MgCl2, 0.5 μM ATP, 250 μM GSH, 0.01 μM Ubc9-GST, 0.125 μM Sumo-Flag and 0.11 nM recombinant human SAE enzyme. […] After incubation for 2 hours at 24° C., quantification of FRET is performed on the Pherostar™ (BMG Labtech). Percentage inhibition values at a single concentration or enzyme inhibition (IC50) values are determined from those curves. […]
parameter.measured: IC50

compound | result
CC(C)(C)C#CCn1ccc(C(=O)c2cncnc2N[C@@H]2C[C@H](COS(N)(=O)=O)[C@@H](O)C2)n1 [Compound I-113] | 10 to 100 nM
NS(=O)(=O)OC[C@H]1C[C@@H](Nc2ncncc2C(=O)c2ccn(CC#CC3CC3)n2)C[C@@H]1O [Compound I-287] | < 10 nM
Cn1cc(C#CCn2ccc(C(=O)c3cncnc3N[C@@H]3C[C@H](COS(N)(=O)=O)[C@@H](O)C3)n2)cn1 [Compound I-308] | 100 to 1000 nM
NS(=O)(=O)OC[C@H]1C[C@@H](Nc2ncncc2C(=O)c2ccn(Cc3cccc(C(F)(F)F)c3)n2)[C@@H](F)[C@@H]1O [Compound I-102] | < 10 nM
NS(=O)(=O)OC[C@H]1C[C@@H](Nc2ncncc2C(=O)c2ccn(Cc3cc4ccccc4s3)c2)[C@@H](F)[C@@H]1O [Compound I-322] | < 10 nM
Cc1cc(C(=O)c2cncnc2N[C@@H]2C[C@H](COS(N)(=O)=O)[C@@H](O)[C@@H]2F)nn1Cc1cccc(I)c1 [Compound I-294] | < 10 nM
NS(=O)(=O)OC[C@H]1C[C@@H](Nc2ncncc2C(=O)c2cc(Cl)n(Cc3cccc(Br)c3)c2Cl)[C@@H](F)[C@@H]1O [Compound I-105] | 100 to 1000 nM
NS(=O)(=O)OC[C@H]1C[C@@H](Nc2ccncc2C(=O)c2ccn(Cc3cccc(C(F)(F)F)c3)n2)C[C@@H]1O [Compound I-262] | < 10 nM
NS(=O)(=O)OC[C@H]1C[C@@H](Nc2ncncc2C(=O)c2ccn(Cc3ccc(Cl)c(SC(F)(F)F)c3)n2)[C@H](O)[C@@H]1O [Compound I-126] | < 10 nM
NS(=O)(=O)OC[C@H]1C[C@@H](Nc2ncncc2C(=O)c2cc(CO)n(Cc3cccc(Br)c3)n2)C[C@@H]1O [Compound I-90] | < 10 nM
NS(=O)(=O)OC[C@H]1C[C@@H](Nc2ncncc2C(=O)c2ccn(Cc3ccc(Cl)c(Br)c3)n2)[C@H](O)[C@@H]1O [Compound I-204] | < 10 nM
NS(=O)(=O)OC[C@H]1C[C@@H](Nc2ncncc2C(=O)c2ccn(Cc3cc(Br)ccc3Cl)n2)[C@@H](F)[C@@H]1O [Compound I-207] | < 10 nM
NS(=O)(=O)OC[C@H]1C[C@@H](Nc2ncncc2C(=O)c2ccn(Cc3c(F)c(F)c(F)c(F)c3F)n2)C[C@@H]1O [Compound I-202] | 10 to 100 nM
